The measured values listed here are drawn from ChEMBL document CHEMBL1201862.

# Tested on: HT-29
# test-method-notes: NCI tumour cell line growth inhibition, 48 h
Calls of active or inactive are those of the source. No stated cut-off is given here; in the data, active = GI50 up to about 1.1 µM and inactive = higher. Non-standard residues stand in square brackets, D forms with d. Square brackets hold non-standard residues; d marks the D form. Residues, ends and D or L forms follow the SMILES beside them. Peptide text beside a SMILES is read from it. * marks the point of attachment. *: point of attachment. X26 = COC1=CC(=O)N(C(=O)[C@@H](O*)C(C)C)[C@H]1Cc1ccccc1; NMeF = CN[CH](Cc1ccccc1)C(=O)O; NMeV = CN[CH](C(=O)O)C(C)C; Hexanoyl = CCCCCC(=O)*; Boc = CC(C)(C)OC(=O)*
Please go through the items and note down their GI50.

Please report the recorded GI50 for COc1ccc(OC)c(NC(=O)c2c(Cl)c(Cl)c(Cl)c(Cl)c2-c2nc3ccccc3[nH]2)c1 .
> 100 µM (inactive)

Please report the recorded GI50 for CC(=O)/C(=C/N1C(=O)CC(=O)NC1=S)C(=O)Nc1ccccc1C .
23.5 µM (inactive)

Please report the recorded GI50 for COc1ccc2c(C)cc(N/N=C/c3ccc(C)s3)nc2c1 .
3.21 µM (inactive)

Please report the recorded GI50 for Cc1cc(C)cc(Nc2cc(O)nc(O)n2)c1 .
> 100 µM (inactive)

Please report the recorded GI50 for O=C1CC2(CCC(O)(c3ccccc3)C(C(=O)c3ccccc3)C2)C(=O)c2ccccc2N1 (stereo not drawn) .
> 100 µM (inactive)

Please report the recorded GI50 for CCOC(=O)c1c(-c2[nH]c(C(=O)OCc3ccccc3)c(C)c2C(=O)OCC)[nH]c(C(=O)OCc2ccccc2)c1C .
> 100 µM (inactive)

Please report the recorded GI50 for Nc1nc(Cl)nc2c1ncn2C1CCC(COP(=O)(O)OP(=O)(O)OP(=O)(O)O)O1 (stereo not drawn) .
32 µM (inactive)

Please report the recorded GI50 for COc1ccc(CC2=NCCc3cc(OC)c(OC)cc32)cc1Br .
3.18 µM (inactive)

Please report the recorded GI50 for COc1ccc(/N=C\c2ccc(N(CCC#N)CCC#N)cc2)cc1 .
> 67.6 µM (inactive)

Please report the recorded GI50 for CC1CC2OC(=N)C1(C#N)C2(C#N)C#N (stereo not drawn) .
19.4 µM (inactive)

Please report the recorded GI50 for Nc1ncnc2c1ncn2C1OC(CO)C(O)C(O)C1O (stereo not drawn) .
> 100 µM (inactive)

Please report the recorded GI50 for O=C1C=C(c2c(-c3ccccc3)[nH]c3ccccc23)C(=O)N1c1ccccc1 .
7.18 µM (inactive)

Please report the recorded GI50 for Cc1c(C)c(C)n(C2OC(CO)C(O)C(O)C2O)c(=S)c1C#N (stereo not drawn) .
> 100 µM (inactive)

Please report the recorded GI50 for CC(C)(C)N1C=[N+](C(C)(C)C)CC1 .
> 100 µM (inactive)

Please report the recorded GI50 for OCC1OC(n2cnc3c(Cl)nc(Nc4ccc(Cl)c(Cl)c4)nc32)CC1O (stereo not drawn) .
7.71 µM (inactive)

Please report the recorded GI50 for CC(O)CC(O)(C(F)(F)F)C(F)(F)F (stereo not drawn) .
> 10 µM (inactive)

Please report the recorded GI50 for O=C(CNc1ccccc1[N+](=O)[O-])Nn1cnc2ccc(S(=O)(=O)Nc3ccccc3[N+](=O)[O-])cc2c1=O .
> 100 µM (inactive)

Please report the recorded GI50 for CCCCCC(=O)N[C@H](C(=O)N[C@H](C(=O)N(C)[C@H](C(=O)N1CCC[C@H]1C(=O)N1CCC[C@H]1C(=O)O[C@H](C(=O)N1C(=O)C=C(OC)[C@@H]1Cc1ccccc1)C(C)C)C(C)C)C(C)C)C(C)C (Hexanoyl-VV[NMeV]PP-X26) .
> 100 µM (inactive)

Please report the recorded GI50 for c1ccc2c(c1)c1ccccc1n2Cn1c2ccccc2c2ccccc21 .
> 100 µM (inactive)

Please report the recorded GI50 for CC(C)c1cc(C(C)C)c(S(=O)(=O)N=[N+]=[N-])c(C(C)C)c1 .
46.6 µM (inactive)

Please report the recorded GI50 for COc1cc(S(=O)(=O)N/N=C/c2cc(Br)c(O)c(OC)c2)c(OC)cc1NC(C)=O .
34 µM (inactive)

Please report the recorded GI50 for CCN(CC)c1c(C(=O)/C=C/c2ccc(OC)cc2)c(-c2ccccc2)nn(C)c1=O .
9.51 µM (inactive)

Please report the recorded GI50 for N=C1CSC2=NC3=C(CCC/C3=C\c3ccccc3)C(c3ccccc3)N12 (stereo not drawn) .
2.97 µM (inactive)

Please report the recorded GI50 for O=C(O)C(Cc1c[nH]cn1)N1C(=O)c2ccccc2C1=O (stereo not drawn) .
> 100 µM (inactive)

Please report the recorded GI50 for Cc1ccc(-c2cc(N)n(-c3nc4c([nH]3)c(=O)n(C)c(=O)n4C)n2)cc1 .
4.53 µM (inactive)

Please report the recorded GI50 for CCOC(=O)c1c2c(n(C)c1-c1ccccc1)C(=O)C(C)=CC2=O .
5.79 µM (inactive)

Please report the recorded GI50 for CC(=O)c1cccc(Nc2c3ccccc3nc3occc23)c1 .
1.51 µM (inactive)

Please report the recorded GI50 for CN1CCN(C2=NCCO2)CC1 .
> 100 µM (inactive)

Please report the recorded GI50 for CC(C)C1CC[C@@H](C)C[C@@]1(O)CC(N)=O (stereo partly drawn) .
> 100 µM (inactive)

Please report the recorded GI50 for Cc1ccc(S(=O)(=O)N/N=C2/C(=O)Nc3c(Cl)cc(Cl)cc32)cc1 .
39.1 µM (inactive)

Please report the recorded GI50 for O=C(/C=C/c1ccc(F)c(F)c1)OCCc1ccccc1 .
34.5 µM (inactive)

Please report the recorded GI50 for C=CN1CCN(c2ccccc2)P1(=O)Oc1ccccc1 (stereo not drawn) .
92.9 µM (inactive)

Please report the recorded GI50 for CC(C)C(NC(=O)OC(C)(C)C)C(=O)N(C)C(Cc1ccccc1)C(=O)N(C)C(C(=O)O)C(C)C (stereo not drawn) (Boc-Val-[NMeF]-[NMeV]-OH; configuration not given here) .
> 100 µM (inactive)
